# Tested on: HEK293 cell homogenate
# experiment-summary: Equilibrium dialysis binding to HEK293 cell homogenate (fraction unbound)
# Type: in vitro ADME
# measurement-parameters: equilibrium dialysis, HEK293 cell homogenate, 0.1 μM
assay-endpoint: fu,hom mass balance (%)
Numbers only, in %.

State, in one line, measured fu,hom mass balance of COc1cc2c(Oc3ccc(NC(=O)C4(C(=O)Nc5ccc(F)cc5)CC4)cc3F)ccnc2cc1OCCCCOCCCCOCC(=O)NC(C(=O)N1CC(O)CC1C(=O)NCc1ccc(-c2scnc2C)cc1)C(C)(C)C (centres unmarked) 118

State, in one line, measured fu,hom mass balance of `CCCOc1cccc(Oc2cc3c(cc2NS(=O)(=O)c2cccc(C(=O)NCCOCCOCCOCC(=O)N[C@@H](C(=O)N4C[C@@H](O)C[C@@H]4C(=O)NCc4ccc(-c5scnc5C)cc4)C(C)(C)C)c2)n(C)c(=O)n3C)c1` 66

State, in one line, measured fu,hom mass balance of Cc1ccc(C(=O)NCCCCc2cn(CCCC(=O)NCCCCNc3cccc4c3C(=O)N(C3CCC(=O)NC3=O)C4=O)nn2)cc1-n1c(C)cc(OCc2ccc(F)cc2F)c(Br)c1=O (centres unmarked) 111

State, in one line, measured fu,hom mass balance of `Cc1ncsc1-c1ccc(CNC(=O)[C@@H]2C[C@@H](O)CN2C(=O)[C@@H](NC(=O)COCCCCOc2ccc(-c3ccc(N4C(=S)N(c5ccc(C#N)c(C(F)(F)F)c5)C(=O)C4(C)C)cc3)cc2)C(C)(C)C)cc1` 109

--- query ---
State, in one line, measured fu,hom mass balance of `CC(=O)c1c(C)c2cnc(Nc3ccc(N4CCN(CCOCCOCCOCCNC(=O)COc5cccc6c5C(=O)N([C@H]5CCC(=O)NC5=O)C6=O)CC4)cn3)nc2n(C2CCCC2)c1=O` 76
